// provenance: patent US11492335B2

# subject of test: recombinant human DAO (diamine oxidase) (Homo sapiens, UniProt P19801)
# Construct: purchased R&D systems
# Sequence (P19801 20-751): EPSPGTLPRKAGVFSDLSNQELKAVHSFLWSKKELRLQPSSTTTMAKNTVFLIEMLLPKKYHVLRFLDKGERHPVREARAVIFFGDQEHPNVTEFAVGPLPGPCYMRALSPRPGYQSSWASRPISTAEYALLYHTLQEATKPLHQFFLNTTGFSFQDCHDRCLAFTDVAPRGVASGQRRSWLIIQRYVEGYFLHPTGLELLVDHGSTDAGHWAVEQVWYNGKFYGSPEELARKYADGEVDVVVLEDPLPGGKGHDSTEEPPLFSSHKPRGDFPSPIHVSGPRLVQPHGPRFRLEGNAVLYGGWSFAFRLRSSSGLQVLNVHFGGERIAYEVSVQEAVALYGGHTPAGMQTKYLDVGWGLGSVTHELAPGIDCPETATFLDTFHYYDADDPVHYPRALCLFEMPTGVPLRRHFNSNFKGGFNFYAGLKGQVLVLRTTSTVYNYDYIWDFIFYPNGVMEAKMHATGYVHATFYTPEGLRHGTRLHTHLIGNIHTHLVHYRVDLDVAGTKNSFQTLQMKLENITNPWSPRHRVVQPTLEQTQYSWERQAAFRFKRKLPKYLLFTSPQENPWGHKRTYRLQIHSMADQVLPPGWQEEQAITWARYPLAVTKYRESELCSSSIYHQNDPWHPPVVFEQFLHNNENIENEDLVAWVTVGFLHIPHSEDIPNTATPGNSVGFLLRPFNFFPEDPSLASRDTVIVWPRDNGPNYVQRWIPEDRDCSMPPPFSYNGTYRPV
# assay summary: Activity on recombinant human DAO, Amplex Red method, 1 mM putrescine substrate
# Assay type: biochemical
# reported conditions: recombinant human DAO, 1 mM putrescine; * = between 10 and 100 nM, ** = between 300 and 1000 nM; read-out: Inhibitory Activity (IC50, nM) DAO
Structures can show the parent of a compound that is named as a salt.
observed property: IC50 (nM)

NC/C(=C\F)Cn1ncn(-c2cccc(-c3ccc(C4CCOCC4)cc3)c2)c1=O [Example 73, hydrochloride] = 67
Cc1cc(-c2cccc(-n3cnn(C/C(=C/F)CN)c3=O)c2)cc2c1NC(=O)CC2 [Example 102, hydrochloride] = 28
CC(C)Sc1ccc(-c2cccc(-n3cnn(C/C(=C/F)CN)c3=O)c2)cc1 [Example 52, hydrochloride] = 24
NC/C(=C\F)Cn1ncn(-c2cc(F)c(Br)c(F)c2)c1=O [Example 20, hydrochloride] = 15
Cc1cc(-c2cccc(-c3noc(C(C)C)n3)c2)cnc1-n1cnn(C/C(=C/F)CN)c1=O [Example 143, hydrochloride] = 12

1 = NC/C(=C/F)Cn1ncn(-c2cccc(-c3ccc4c(c3)OCCO4)c2)c1=O [Example 94, hydrochloride]
2 = Cc1cc(-n2cnn(C/C(=C/F)CN)c2=O)cnc1Br [Example 27, hydrochloride]
3 = Cc1cc(-c2cccc(-n3cnn(C/C(=C/F)CN)c3=O)c2)ccc1N1CCOCC1 [Example 77, hydrochloride]
4 = COc1cc(-n2cnn(C/C(=C\F)CN)c2=O)ccc1Br
5 = Cc1cc(Br)ncc1-n1cnn(C/C(=C/F)CN)c1=O [Example 28, hydrochloride]
q: Highest IC50 first, then in falling order down to the smallest. Provide the ranking by listing each label in its place in the requested order.
a: 5, 1, 4, 3, 2
